test: Bioavailability in monkey after oral administration.; type: ADME, organism-based; settings: simiiformes, in vivo, read-out: BA
readout.type: bioavailability (%)

(P) Cc1ccnc(C)c1C(=O)N1CCC(C)(N2CCN([C@@H](C)c3ccc(C(F)(F)F)cc3)[C@@H](C)C2)CC1
(Q) Cc1cc[n+]([O-])c(C)c1C(=O)N1CCC(C)(N2CCN([C@@H](C)c3ccc(C(F)(F)F)cc3)[C@@H](C)C2)CC1
Query: Form: Entry with minimum bioavailability (choose one): P / Q Refer to your chosen entry by its label in the reply.
Result: P
(P: 27.5%, Q: 59%)

====

test system: Canis familiaris; assay: Area under concentration curve in Beagle dogs after oral administration (0-24 hr); assay type: ADME, organism-based, Canis lupus familiaris; set-up: time < 24 hr, route oral; conditions: dog, in vivo
readout.type: AUC (ng·h/mL)

(A) Cc1ccnc(C)c1C(=O)N1CCC(C)(N2CCN([C@@H](C)c3ccc(C(F)(F)F)cc3)[C@@H](C)C2)CC1
(B) Cc1cc[n+]([O-])c(C)c1C(=O)N1CCC(C)(N2CCN([C@@H](C)c3ccc(C(F)(F)F)cc3)[C@@H](C)C2)CC1
Query: # query: argmin of AUC over A and B Identify your pick by its label.
Result: A
